# measurement-target: PPAR γ (Homo sapiens, UniProt P37231)
# Construct: Following the challenge of the preadipocytes, cells may be lysed with lysis buffer; endogenous in cells; host or cells: preadipocytes
# assay-overview: aP2 Assay for Agonist (induction of aP2 mRNA production); further: test concentration or dose not given here
# Type: cell-based
# reported-conditions: Table 1; fold increase over vehicle in induction of aP2 mRNA production
quantity: Agonist Intrinsic Activity
Please state the value as a number alone, without comment.

Enter recorded Agonist Intrinsic Activity with PPAR γ (Homo sapiens, UniProt P37231) for CC(=O)NCCCCCCN1C(=O)C(CCOc2ccccc2CC(=O)O)Oc2ccccc21 (stereo not drawn) [Compound 125] here.
10.78

Enter recorded Agonist Intrinsic Activity with PPAR γ (Homo sapiens, UniProt P37231) for COC(=O)Cc1ccccc1OCCC1Oc2ccccc2N(CCCCC(C)=O)C1=O (stereo not drawn) [Compound 77] here.
9.9

Enter recorded Agonist Intrinsic Activity with PPAR γ (Homo sapiens, UniProt P37231) for CC(C)(CN)CCCCN1C(=O)C(CCOc2ccccc2CC(=O)O)Oc2ccccc21 (stereo not drawn) [Compound 96] here.
27.5

* * *

Answer each item with its documented Agonist Intrinsic Activity.
# measurement-target: PPAR γ (Homo sapiens, UniProt P37231)
# Construct: Following the challenge of the preadipocytes, cells may be lysed with lysis buffer; endogenous in cells; host or cells: preadipocytes
# Sequence (P37231 1-505): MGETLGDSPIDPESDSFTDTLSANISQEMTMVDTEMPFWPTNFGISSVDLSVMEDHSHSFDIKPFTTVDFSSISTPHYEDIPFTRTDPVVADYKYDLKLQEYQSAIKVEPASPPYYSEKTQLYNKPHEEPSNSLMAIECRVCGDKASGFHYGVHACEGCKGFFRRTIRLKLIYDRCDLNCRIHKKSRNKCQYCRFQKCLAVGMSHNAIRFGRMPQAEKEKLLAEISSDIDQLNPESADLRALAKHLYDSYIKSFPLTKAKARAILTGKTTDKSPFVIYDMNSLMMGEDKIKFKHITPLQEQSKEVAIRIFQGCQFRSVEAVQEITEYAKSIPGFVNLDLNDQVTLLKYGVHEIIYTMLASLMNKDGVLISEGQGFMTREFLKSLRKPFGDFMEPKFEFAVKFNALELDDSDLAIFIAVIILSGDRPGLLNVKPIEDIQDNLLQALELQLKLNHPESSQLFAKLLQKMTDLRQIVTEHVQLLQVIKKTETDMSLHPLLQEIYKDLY
# assay-overview: aP2 Assay for Agonist (induction of aP2 mRNA production); further: test concentration or dose not given here
# Type: cell-based
# reported-conditions: Table 1; fold increase over vehicle in induction of aP2 mRNA production
Please state the value as a number alone, without comment.

Find the measured Agonist Intrinsic Activity of O=C([O-])Cc1cccc(OCCC2Oc3ccccc3N(Cc3cccc(C(F)(F)F)c3)C2=O)c1.[Na+] (stereo not drawn) and report it.
10.4

Find the measured Agonist Intrinsic Activity of COC(=O)c1ccccc1OCCC1Oc2ccccc2N(Cc2ccc(C)cc2)C1=O (stereo not drawn) and report it.
0.9

Find the measured Agonist Intrinsic Activity of O=C(O)Cc1ccccc1OCCC1Oc2ccccc2N(CCCCCCCO)C1=O (stereo not drawn) and report it.
74.5

* * *

# measurement-target: PPAR γ (Homo sapiens)
# Construct: Following the challenge of the preadipocytes, cells may be lysed with lysis buffer; endogenous in cells; host or cells: preadipocytes
# assay-overview: aP2 Assay for Agonist (induction of aP2 mRNA production); further: test concentration or dose not given here
# Type: cell-based
# reported-conditions: Table 1; fold increase over vehicle in induction of aP2 mRNA production
Answer each item with its documented Agonist Intrinsic Activity.
Please state the value as a number alone, without comment.

Find the measured Agonist Intrinsic Activity of COC(=O)Cc1ccccc1OCCC1Oc2ccccc2N(c2ccc(Cl)c(Cl)c2)C1=O (centres unmarked) and report it.
0.9

Find the measured Agonist Intrinsic Activity of CC(C)(O)CCCCN1C(=O)C(CCOc2ccccc2CC(=O)O)Oc2ccccc21 (centres unmarked) and report it.
3.5

Find the measured Agonist Intrinsic Activity of O=C([O-])CCCc1ccccc1OCCC1Oc2ccccc2N(Cc2cccc(C(F)(F)F)c2)C1=O.[Na+] (centres unmarked) and report it.
8.2

Find the measured Agonist Intrinsic Activity of O=C(O)Cc1ccccc1OCCC1Oc2ccccc2N(CC(=O)O)C1=O (centres unmarked) [Compound 23] and report it.
0.8

Find the measured Agonist Intrinsic Activity of CON=C(C)CCCCN1C(=O)C(CCOc2ccccc2CC(=O)O)Oc2ccccc21 (centres unmarked) and report it.
2.8

Find the measured Agonist Intrinsic Activity of CC(C)CCCCN1C(=O)C(CCOc2ccccc2CC(=O)O)Oc2ccccc21 (centres unmarked) and report it.
32

Find the measured Agonist Intrinsic Activity of COC(=O)Cc1ccccc1OCCC1Oc2ccccc2N(CC(=O)OC)C1=O (centres unmarked) [Compound 45] and report it.
7.2

Find the measured Agonist Intrinsic Activity of CCOCCCN1C(=O)C(CCOc2ccccc2C(F)(F)F)Oc2ccccc21 (centres unmarked) and report it.
1.4
